# System: PPARa:RXRa (NR concentration 270 nM, RXRa partner concentration 90 nM)
# protocol.text: PBM binding z-score (relative to random genomic background probes); higher = stronger binding; sequences stand for … in GC…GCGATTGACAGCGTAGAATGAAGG
metric: PBM binding z-score
No unit in the answer, please; the number alone is enough.

Answered examples (6):
INSERT INTO measurements (item_sequence, tested_target, assay_result) VALUES
  ('CCTTACGGGTCCAGGTTATAGCACGGGTGGTACG', 'PPARa:RXRa (NR concentration 270 nM, RXRa partner concentration 90 nM)', -0.292),
  ('CTACGAAGGTGAACAAGGTCGTTGATTACTATTC', 'PPARa:RXRa (NR concentration 270 nM, RXRa partner concentration 90 nM)', 2.66),
  ('TCTAGCAGGTCAGAGGGTCACTCAAGAGGTACGG', 'PPARa:RXRa (NR concentration 270 nM, RXRa partner concentration 90 nM)', 4.54),
  ('CCGACTGGGGCATAAGGTTACCATGAGCCAGCCC', 'PPARa:RXRa (NR concentration 270 nM, RXRa partner concentration 90 nM)', 1.9),
  ('AATACAGGGTCACTAGGCCACAGTAGGTACGAAT', 'PPARa:RXRa (NR concentration 270 nM, RXRa partner concentration 90 nM)', 6.17),
  ('ATCTCTAGGTAAAGAGAGTTCAGTGAATGCAAAT', 'PPARa:RXRa (NR concentration 270 nM, RXRa partner concentration 90 nM)', 1.34);

Kindly note: PPARa:RXRa (NR concentration 270 nM, RXRa partner concentration 90 nM), ACTATTAGATGAGACGAGGGCAACCGATAGGTTG , PBM binding z-score value reported: 0.35

Kindly note: PPARa:RXRa (NR concentration 270 nM, RXRa partner concentration 90 nM), GCAGACAGGTGAAACGCAGGTAACACAGGGTGGC , PBM binding z-score value reported: 0.885

For the sequence ATCCAAAGGTCGAAGGTGAGTATACCCACCCGAA , the measured PBM binding z-score on PPARa:RXRa (NR concentration 270 nM, RXRa partner concentration 90 nM) was 4.95

Let me check: ATCGAAAGGTCGATGTGAGTATAGAGAAAGGGAA , system PPARa:RXRa (NR concentration 270 nM, RXRa partner concentration 90 nM), measured PBM binding z-score is 3.35

Result for ATCTCTGGGTAAGACTCAGTTCAGTGAAGAACGC , tested on PPARa:RXRa (NR concentration 270 nM, RXRa partner concentration 90 nM), PBM binding z-score: 0.1

Record CCTCCAAGGTCAATGCTAGGTCAGTGAAAGCATT has PPARa:RXRa (NR concentration 270 nM, RXRa partner concentration 90 nM) PBM binding z-score equal to 5.22

Response field PBM binding z-score (PPARa:RXRa (NR concentration 270 nM, RXRa partner concentration 90 nM)) for item TAGCATAGGTCATTGGGCCAGTATAGTACGCATC : 5.41

###

# Test system: VDR homodimer (NR concentration 270 nM)
# protocol.text: PBM binding z-score (relative to random genomic background probes); higher = stronger binding; sequences stand for … in GC…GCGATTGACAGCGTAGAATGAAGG
Quick reference for PBM binding z-score among some sequences
The reply should be a number, written without any unit.

INSERT INTO measurements (item_sequence, assay_result) VALUES
  ('ACTATTTGGTCAGCTGAGGTCACACACAATTCGG', 3.67),
  ('ACTCGGAGGACAAGGGTCAGAGCTACGCCAGTGA', 1.05),
  ('CGGACTAGGTCATCCAGGACAGTGAATACATTGA', 1.59);

Lab book: PBM binding z-score of ACCGACAGGTGATGAAGGTAACTCAGGCTATCAT noted as -0.217

Lab note: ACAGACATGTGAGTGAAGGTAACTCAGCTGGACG gave PBM binding z-score of -0.512
